These measurements were taken from patent US11040984B2.

Measured pIC50 on EGFR WT (Homo sapiens (Human)) follows.
Sequence (P00533 25-1210): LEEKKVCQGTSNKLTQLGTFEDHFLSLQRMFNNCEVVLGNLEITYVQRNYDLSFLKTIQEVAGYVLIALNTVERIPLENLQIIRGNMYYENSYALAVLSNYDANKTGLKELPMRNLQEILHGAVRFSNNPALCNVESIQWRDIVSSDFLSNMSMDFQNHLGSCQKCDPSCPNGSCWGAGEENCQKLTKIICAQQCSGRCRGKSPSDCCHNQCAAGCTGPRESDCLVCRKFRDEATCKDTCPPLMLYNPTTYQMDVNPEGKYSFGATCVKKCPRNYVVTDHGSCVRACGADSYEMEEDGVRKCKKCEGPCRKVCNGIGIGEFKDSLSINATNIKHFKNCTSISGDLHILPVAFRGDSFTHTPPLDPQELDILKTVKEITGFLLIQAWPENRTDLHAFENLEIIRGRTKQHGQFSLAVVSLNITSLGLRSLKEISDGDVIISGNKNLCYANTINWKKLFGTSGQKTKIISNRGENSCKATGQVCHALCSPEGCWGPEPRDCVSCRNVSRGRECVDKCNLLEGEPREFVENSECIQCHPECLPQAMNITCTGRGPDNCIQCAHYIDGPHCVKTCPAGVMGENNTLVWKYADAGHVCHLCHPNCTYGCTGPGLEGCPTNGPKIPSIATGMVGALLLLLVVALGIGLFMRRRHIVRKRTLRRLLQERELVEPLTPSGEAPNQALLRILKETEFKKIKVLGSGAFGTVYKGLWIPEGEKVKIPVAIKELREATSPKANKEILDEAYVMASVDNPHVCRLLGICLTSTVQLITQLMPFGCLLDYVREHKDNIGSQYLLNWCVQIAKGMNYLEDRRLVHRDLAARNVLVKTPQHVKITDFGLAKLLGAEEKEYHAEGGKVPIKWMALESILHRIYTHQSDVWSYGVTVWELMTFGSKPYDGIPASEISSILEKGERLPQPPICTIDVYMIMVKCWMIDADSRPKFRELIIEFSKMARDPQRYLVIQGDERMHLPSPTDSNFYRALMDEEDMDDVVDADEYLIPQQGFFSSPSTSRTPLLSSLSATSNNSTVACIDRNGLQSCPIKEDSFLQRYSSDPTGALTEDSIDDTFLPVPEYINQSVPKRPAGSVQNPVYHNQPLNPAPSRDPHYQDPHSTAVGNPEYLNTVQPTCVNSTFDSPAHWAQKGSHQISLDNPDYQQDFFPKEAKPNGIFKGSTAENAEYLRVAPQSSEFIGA
Structures can show the parent of a compound that is named as a salt.
The meaning of pIC50 here: minus log10 of the concentration in molar units.

Example entries begin here.
>  <Molecule>
COc1cc2ncnc(Nc3cccc(Cl)c3F)c2cc1N1CC2(CN(C)C2)OC1=O [Formate of compound 13]

>  <Reading>
10.80

$$$$
>  <Molecule>
CC(C)N1CC2(CN(c3ccc4ncnc(Nc5cccc(Cl)c5F)c4c3)C(=O)O2)C1 [Formate of compound 33]

>  <Reading>
9.94

$$$$
>  <Molecule>
CN1CCC2(CC1)CN(c1ccc3ncnc(Nc4cccc(Cl)c4F)c3c1)C(=O)O2 [Formate of compound 12]

>  <Reading>
10.77

$$$$

Query molecule follows.
Could you share what pIC50 was measured for CCCN1CC2(C1)CN(c1cc3c(Nc4cccc(Cl)c4F)ncnc3cc1OC)C(=O)O2 [Hydrochloride of compound 30] , tested on EGFR WT (Homo sapiens (Human))?
10.68

====

Test system: A431 cells
Assay: Anti-A431 cell proliferation
Type: cell-based
Details: Homo sapiens, A-431, read-out: Anti-A431 cell proliferative activity IC50
Counter-ions that a name gives are not always drawn.
Measurement name: IC50 (nM)
Return type: number; implicit unit nM.

Example entries begin here.
>  <Compound>
COc1cc2ncnc(Nc3cccc(Cl)c3F)c2cc1N1C[C@H](CN(C)C)OC1=O [Compound 18]

>  <Reading>
59

$$$$
>  <Compound>
COc1cc2ncnc(Nc3cccc(Cl)c3F)c2cc1N1CC2(CCN(C)CC2)OC1=O [Formate of compound 3]

>  <Reading>
96

$$$$
>  <Compound>
COc1cc2ncnc(Nc3cccc(Cl)c3F)c2cc1N1CC2(CN(C(C)C)C2)OC1=O [Compound 26]

>  <Reading>
98

$$$$
>  <Compound>
COc1cc2ncnc(Nc3ccc(F)c(Cl)c3F)c2cc1N1CC2(CCN(C)CC2)CC1=O [Formate of compound 10]

>  <Reading>
73

$$$$

What value of IC50 has been recorded for this entry: CCN1CC2(C1)CN(c1cc3c(Nc4cccc(Cl)c4F)ncnc3cc1OC)C(=O)O2 [Compound 25]
64

What value of IC50 has been recorded for this entry: CCCN1CC2(C1)CN(c1cc3c(Nc4cccc(Cl)c4F)ncnc3cc1OC)C(=O)O2 [Hydrochloride of compound 30]
71

What value of IC50 has been recorded for this entry: CN1CCC2(CC1)CN(c1ccc3ncnc(Nc4cccc(Cl)c4F)c3c1)C(=O)O2 [Formate of compound 12]
46

====

Target: EGFR [d746-750] (Homo sapiens (Human), UniProt P00533, DEL746-750)
Sequence (P00533 other isoform, or with tags, fused parts or gaps del 1-667/del 746-750 limits assumed): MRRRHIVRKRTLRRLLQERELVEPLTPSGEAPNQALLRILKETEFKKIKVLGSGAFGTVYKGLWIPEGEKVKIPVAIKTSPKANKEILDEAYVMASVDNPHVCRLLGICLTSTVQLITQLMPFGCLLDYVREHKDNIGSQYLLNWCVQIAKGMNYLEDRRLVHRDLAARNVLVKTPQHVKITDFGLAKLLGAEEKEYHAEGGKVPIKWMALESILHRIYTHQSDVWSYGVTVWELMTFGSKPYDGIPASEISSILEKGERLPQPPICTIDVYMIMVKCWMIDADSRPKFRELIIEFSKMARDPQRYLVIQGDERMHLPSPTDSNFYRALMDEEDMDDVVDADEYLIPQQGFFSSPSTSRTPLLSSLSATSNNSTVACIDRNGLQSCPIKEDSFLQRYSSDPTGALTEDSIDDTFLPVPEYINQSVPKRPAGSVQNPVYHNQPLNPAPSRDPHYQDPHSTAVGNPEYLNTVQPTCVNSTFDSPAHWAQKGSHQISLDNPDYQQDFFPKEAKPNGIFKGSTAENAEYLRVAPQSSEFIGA
Test: Kinase assay (HTRF KinEASE TK), EGFR exon 19 deletion enzyme
Where a name gives a salt, the structure may show the parent alone.
Measurement name: pIC50
The meaning of pIC50 here: minus log10 of the concentration in molar units.

>  <Compound>
COc1cc2ncnc(Nc3cccc(Cl)c3F)c2cc1N1CC2(CCN(C)CC2)OC1=O [Formate of compound 3]

>  <Measurement name>
pIC50

>  <Reading>
10.70

$$$$

What value of pIC50 has been recorded for this entry: COc1cc2ncnc(Nc3cccc(Cl)c3F)c2cc1N1C[C@H](CN(C)C)OC1=O [Compound 18]
10.30

What value of pIC50 has been recorded for this entry: COc1cc2ncnc(Nc3ccc(F)c(Cl)c3)c2cc1N1CC2(CCN(C)CC2)OC1=O [Formate of compound 2]
7.78

What value of pIC50 has been recorded for this entry: CCCN1CC2(C1)CN(c1cc3c(Nc4cccc(Cl)c4F)ncnc3cc1OC)C(=O)O2 [Hydrochloride of compound 30]
10.28
